Each recorded value in this set is attributed to patent US12534456B2.

- assay details: physchem
- Type: physicochemical
- cond: Table 15, compounds of formula (9); method [a]: LC-UV, acidic range, 0.1% formic acid in water and acetonitrile
metric name: chromatographic logP

* N#Cc1cc(Cl)ncc1Oc1cccc(C(F)(F)F)c1 | 3.77

====

- Test system: Alternaria alternata
- assay details: Alternaria alternata in vitro cell test
- Type: cell-based
- cond: 120 h, 20 ppm of active ingredient, liquid culture with spores, 5 days incubation, spectrometric measurement of mycelium growth, read-out: efficacy (inhibition of fungal growth)
metric name: inhibition at 20 ppm

* Cc1ccc(CC2CON=C(c3cc(Cl)ncc3Oc3cccc(C(F)(F)F)c3)N2)c(C)c1 (racemic) | 90 to 100%
* Cc1ccc(CC2CC(=O)N=C(c3cc(Cl)ncc3Oc3cccc(C(F)(F)F)c3)N2)c(C)c1 (racemic) | 80 to 89%
* Cc1ccc(CC2CON=C(c3cc(C(F)(F)F)ncc3Oc3cccc(C(F)(F)F)c3)N2)c(C)c1 (racemic) | 90 to 100%
* Cc1ccc(CC2CON=C(c3ccncc3Oc3cccc(C(F)(F)F)c3)N2)cc1 (racemic) | 90 to 100%
* COc1ccc(C2NC(c3cc(Cl)ncc3Oc3cccc(C(F)(F)F)c3)=NOC2(F)F)cc1 (racemic) | 90 to 100%
* FC(F)c1cccc(Oc2cnc(Cl)cc2C2=NOC[C@@H](Cc3ccc([C@H]4CCOC4)cc3Cl)N2)c1 (racemic) | 90 to 100%
* Cc1ccc(CC2CCN=C(c3cc(Cl)ncc3Oc3cccc(C(F)(F)F)c3)N2)c(C)c1 (racemic) | 80 to 89%
* Cc1cc(C2=NOCC(Cc3ccc(Cl)cc3Cl)N2)c(Oc2cccc(C3CC3)c2F)cn1 (racemic) | 90 to 100%
* Cc1ccc(C[C@@H]2CON=C(c3cc([C@@H]4CCOC4)ncc3Oc3cccc(C(F)(F)F)c3)N2)cc1 (racemic) | 90 to 100%
* Cc1ccc(C2CON=C(c3cc(Cl)ncc3Oc3cccc(C(F)(F)F)c3)N2)s1 (racemic) | 90 to 100%
* Cc1cc(C2CC2)ccc1CC1CON=C(c2cc(Cl)ncc2Oc2cccc(C(F)(F)F)c2)N1 (racemic) | 80 to 89%
* Cc1ccc(CC2CON=C(c3cc(N4CCCC4)ncc3Oc3cccc(C(F)(F)F)c3)N2)cc1 (racemic) | 90 to 100%

====

Recorded LogP values for a group of compounds are listed next.
- assay details: physchem
- Type: physicochemical
metric name: LogP

• Cc1ccc(CC2CON=C(c3cc(C4CC4)ncc3Oc3cccc(C4CC4)c3)N2)c(C)c1 (racemic) [Compound I-016] = 4.87^[a]
• Clc1ccc(CC2CON=C(c3cc(Cl)ncc3Oc3cccc(C4CC4)c3)N2)c(Cl)c1 (racemic) [Compound I-025] = 4.98^[a]
• COc1cc(C(=O)NC(CCl)Cc2ccc(C)cc2Cl)c(Br)cn1 (stereo not drawn) [17-03] = 3.94^[a]

====

- assay details: physchem
- Assay type: physicochemical
metric name: LogP

* Cc1ccc(CC(CCl)NC(=NO)c2cc(Cl)nc(Cl)c2Oc2cccc(C(F)(F)F)c2)c(C)c1 (stereo not shown) | 5.35^[a]
* Cc1ccc(CC(CCl)NC(=O)c2c(Oc3cccc(C(F)(F)F)c3)cnc(Cl)c2I)c(C)c1 (stereo not shown) | 5.18^[a]
* ON=C(NC(CCl)Cc1csc(C(F)(F)F)c1)c1cc(Cl)ncc1Oc1cccc(C(F)(F)F)c1 (stereo not shown) | 4.59^[a]
* Cc1ccc(CC2CON=C(c3c(Oc4cccc(C(F)(F)F)c4)cnc(Cl)c3F)N2)c(C)c1 (racemic) | 4.66^[a]
* CC(=O)c1cc(C2=NOCC(Cc3ccc(C)cc3)N2)c(Oc2cccc(C(F)(F)F)c2)cn1 (racemic) | 4.07^[a]
* Cc1ccc(C2CCON=C(c3cc(Cl)ncc3Oc3cccc(C(F)(F)F)c3)N2)cc1 (stereo not shown) | 2.06^[a]
* Cc1ccc(CC2CON=C(c3cc(Cl)ncc3Oc3cccc(Cl)c3)N2)c(C)c1 (single isomer, unassigned) [Compound I-011] | 4.53^[a]
* COC(=O)Cc1cccc(Oc2cnc(Cl)cc2C2=NOCC(Cc3ccc(C)cc3C)N2)c1 (racemic) | 4.08^[a]
* Cc1ccc(CC(CON)NC(=O)c2cc(Cl)ncc2Oc2cccc(C3CC3)c2F)c(C)c1 (stereo not shown) | 3.72^[a]
* C=Cc1cc(C2=NOCC(Cc3ccc(C)cc3)N2)c(Oc2cccc(C(F)(F)F)c2)cn1 (racemic) | 4.19^[a]
* Cc1cccc(C2CON=C(c3cc(Cl)ncc3Oc3cccc(C(F)(F)F)c3)N2)c1C (stereo not shown) | 4.23^[a]
* Cc1ccc(CC(CON)NC(=O)c2cc(Cl)ncc2Oc2cccc(Cl)c2)c(C)c1 (stereo not shown) | 3.35^[a]
* Cc1ccc(CC(CON)NC(=O)c2cc(Cl)ncc2Oc2cccc(C(F)F)c2)c(C)c1 (stereo not shown) | 3.09^[a]
* CC(=O)c1cc(C(=O)O)c(Oc2cccc(C(F)(F)F)c2)cn1 | 2.54^[a]
* Cc1ccc(CC2CON=C(c3c(Oc4cccc(C(F)(F)F)c4)cnc(Cl)c3C)N2)c(C)c1 (racemic) | 4.55^[a]
* Cc1cccc(CC2CON=C(c3cc(Cl)ncc3Br)N2)c1Cl (stereo not shown) | 3.44^[a]

====

- assay details: physchem
- Type: physicochemical
- cond: Table 22, compounds of formula (17); method [a]
metric name: chromatographic logP

* Cc1ccc(CC(CCl)NC(=O)c2ccncc2Br)cc1 (racemic) [Compound 17-01] | 2.8

====

Recorded LogP values for a group of compounds are listed next.
- assay details: physchem
- Assay type: physicochemical
metric name: LogP

- Cc1ccc(CC2CON=C(c3cc(C#N)ncc3Oc3cccc(C(F)(F)F)c3)N2)cc1 (racemic) [Compound I-057]: 4.12^[a]
- Cc1ccc(CC2CON=C(c3cc(Cl)ncc3Oc3ccccc3)N2)c(C)c1 (racemic) [Compound I-063]: 4.17^[a]
- COCCOc1c(Cl)ncc(Oc2cccc(C(F)(F)F)c2)c1C1=NOCC(Cc2ccc(C)cc2C)N1 (racemic) [Compound I-129]: 4.51^[a]
- Cc1cc(C2=NOCC(Cc3ccc(Cl)cc3Cl)N2)c(Oc2cccc(C3CC3)c2)cn1 (racemic) [Compound I-028]: 4.08^[a]
- Clc1ccc(CC2CON=C(c3cc(Cl)ncc3Oc3ccc4c(c3)CCO4)N2)c(Cl)c1 (stereo not shown) [Compound I-130]: 4.30^[a]
- CCOc1cccc(Oc2cnc(Cl)cc2C2=NOCC(Cc3ccc(C)cc3C)N2)c1 (stereo not shown) [Compound I-142]: 4.59^[a]
- Cc1ccc(CC2CON=C(c3cc(Cl)ncc3Oc3ccc4c(c3)CCO4)N2)c(C)c1 (racemic) [Compound I-111]: 4.23^[a]
- FC(F)(F)c1cccc(Oc2cnc(Cl)cc2C2=NOCC(Cc3csc(Cl)c3)N2)c1 (stereo not shown) [Compound I-138]: 4.38^[a]
- C#Cc1cccc(Oc2cnc(Cl)cc2C2=NOCC(Cc3ccc(C)cc3C)N2)c1 (racemic) [Compound I-075]: 4.33^[a]
- FC(F)(F)c1cccc(Oc2cnc(Cl)cc2C2=NOCC(c3ccccc3)N2)c1 (racemic) [Compound I-070]: 3.64^[a]
- O=C(O)c1cc(Cl)ncc1Oc1cccc(C(F)F)c1 [Compound 1-10]: 2.48^[a]
- Fc1c(Cl)cccc1Oc1cnc(Cl)cc1C1=NOCC(Cc2ccc(Cl)cc2Cl)N1 (racemic) [Compound I-102]: 4.71^[a]
- Cc1ccc(CC(CON2C(=O)c3ccccc3C2=O)NC(=O)OC(C)(C)C)c(Cl)c1 (stereo not shown) [Compound 2-05]: 4.41^[a]
- O=C(NC(CCl)Cc1csc(Cl)c1)c1cc(Cl)ncc1Oc1cccc(C(F)(F)F)c1 (stereo not shown) [14-11]: 4.96^[a]
- Clc1cc(C2=NOCC(Cc3ccc(Br)cc3Cl)N2)c(Oc2cccc(C3CC3)c2)cn1 (racemic) [Compound I-026]: 5.16^[a]
- O=C(NC(CON1C(=O)c2ccccc2C1=O)Cc1ccc(Br)cc1Cl)c1cc(Cl)ncc1Oc1cccc(C2CC2)c1F (stereo not shown) [3-05]: 5.62^[a]

====

- assay details: physchem
- Assay type: physicochemical
metric name: LogP

- CC(=O)c1cccc(Oc2cnc(Cl)cc2C2=NOCC(Cc3ccc(C)cc3C)N2)c1 (racemic): 3.70^[a]
- COC(=O)c1cc(C(C)=O)ncc1Oc1cccc(C(F)(F)F)c1: 3.59^[a]
- Cc1ccc(CC2CON=C(c3cc(Cl)ncc3Oc3cccc(Cl)c3)N2)c(Cl)c1 (racemic): 4.66^[a]

====

Recorded LogP values for a group of molecules are listed next.
- assay details: physchem
- Format: physicochemical
metric name: LogP

- O=C(O)c1c(Oc2cccc(C(F)(F)F)c2)cnc(Cl)c1F: 2.28^[a]
- Cc1ccc(CC2CON=C(c3cc(Cl)ncc3Oc3cccc(Br)c3)N2)c(C)c1 (racemic): 4.74^[a]
- CSc1c(Cl)ncc(Oc2cccc(C(F)(F)F)c2)c1C1=NOCC(Cc2ccc(C)cc2C)N1 (racemic): 4.67^[a]
- CC1(C)ON=C(c2cc(Cl)ncc2Oc2cccc(C(F)(F)F)c2)NC1c1ccc(F)cc1F (racemic): 4.30^[a]
- Cc1ccc(CC(CCl)NC(=O)c2cc(Cl)ncc2Oc2cccc(C(F)(F)F)c2)cc1 (stereo not drawn): 5.00^[a]
- Cc1ccc(CC(CON2C(=O)c3ccccc3C2=O)NC(=O)c2cc(Cl)ncc2Oc2cccc(Cl)c2)c(C)c1 (stereo not drawn): 5.11^[a]
- FC(F)(F)c1cc(Oc2cnc(Cl)cc2C2=NOCC(Cc3ccc(Cl)cc3Cl)N2)cs1 (racemic): 4.75^[a]
- Cc1ccc(CC(CON2C(=O)c3ccccc3C2=O)NC(=O)c2cc(Cl)ncc2Oc2cccc(C3CC3)c2F)c(C)c1 (stereo not drawn): 5.38^[a]
- Cc1ccc(C2(C)NC(c3cc(Cl)ncc3Oc3cccc(C(F)(F)F)c3)=NO2)cc1 (racemic): 4.59^[a]
- Cc1cccc(Oc2cnc(Cl)cc2C(=O)NC(CON)Cc2ccc(C)cc2C)c1 (stereo not drawn): 3.37^[a]
- Cc1ccc(CC2CON=C(c3cc(Cl)ncc3Br)N2)c(Cl)c1 (stereo not drawn): 3.38^[a]
- Cc1cc(Cl)ccc1CC1CON=C(c2cc(Cl)ncc2Br)N1 (stereo not drawn): 3.44^[a]
- COc1cc(C2=NOCC(Cc3ccc(C)cc3Cl)N2)c(Oc2cccc(Cl)c2F)cn1 (racemic): 4.51^[a]
- Cc1ccc(CC(CCl)NC(=NO)c2cc(Cl)ncc2Oc2cccc(C(F)(F)F)c2)cc1 (stereo not drawn): 4.59^[a]
- Cc1ccc(C(CCl)NC(=O)c2cc(Cl)ncc2Oc2cccc(C(F)(F)F)c2)cc1 (stereo not drawn): 4.49^[a]
- FC(F)(F)c1cccc(Oc2cnc(Cl)cc2C2=NCC(Cc3ccc(Cl)cc3)N2)c1 (racemic): 2.45^[a]
- CCN(C)c1cc(C2=NOCC(Cc3ccc(C)cc3Cl)N2)c(Oc2cccc(Cl)c2F)cn1 (racemic): 4.59^[a]
- COc1cc(C(=O)NC(CCl)Cc2ccc(C)cc2C)c(Oc2cccc(C(F)(F)F)c2)cn1 (stereo not drawn): 5.26^[a]
